In this section we review reported koff values for a set of binders.
# assayed system: T1, human IFNAR-1 protein (form not stated) (human, UniProt P17181 28-436, limits assumed)
# T1 construct: bispecific ELISA
# T1 sequence (looked up): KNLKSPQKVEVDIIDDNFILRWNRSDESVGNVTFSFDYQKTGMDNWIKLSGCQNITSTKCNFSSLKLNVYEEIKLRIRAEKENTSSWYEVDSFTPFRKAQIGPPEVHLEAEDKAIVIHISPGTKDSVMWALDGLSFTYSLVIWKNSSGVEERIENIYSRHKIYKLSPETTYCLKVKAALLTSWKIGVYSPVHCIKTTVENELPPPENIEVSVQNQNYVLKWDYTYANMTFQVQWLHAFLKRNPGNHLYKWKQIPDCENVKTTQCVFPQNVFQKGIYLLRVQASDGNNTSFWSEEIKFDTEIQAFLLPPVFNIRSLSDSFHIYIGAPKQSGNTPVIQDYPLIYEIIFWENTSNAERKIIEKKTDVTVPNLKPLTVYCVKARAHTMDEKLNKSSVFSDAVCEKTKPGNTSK
# protocol description: affinity ranking of expressed humanized 8G11 IgGs (method not named)
The figure you give is taken to be in s⁻¹; do not add the unit.

binder	koff, s⁻¹
8G11 humanized VH2 + VL4 (antibody, V domains shown, Humanized IgG expressed in HEK293; also called VH2 + VL4 (8G11)) VH: QVQLVQSGAEVVKPGASVKVSCKGSGFNIKDYYMHWVRQAPGQGLEWIGRIDPEDAETKYAPKFQGRVTMTADTSTSTVYMELSSLRSEDTAVYYCARGGNFYVMDYWGQGTLVTVSS VL: DIQMTQSPSFLSTSVGDRVTVTCKASQNVGTNVVWYQQKPGKSPKVLIYSASYRVSGVPSRFSGSGSGTEFTLIISSVQPEDFATYFCQQKNNYPYTFGQGTKLEIK	0.000102
8G11-H1L1 (antibody, V domains shown, Humanized IgG expressed in HEK293; also called VH1 + VL1 (8G11)) VH: QVQLVQSGAEVKKPGASVKVSCKASGFNIKDYYMHWVRQAPGQGLEWMGRIDPEDAETKYAPKFQGRVTMTRDTSTSTVYMELSSLRSEDTAVYYCARGGNFYVMDYWGQGTLVTVSS VL: DIQLTQSPSFLSASVGDRVTITCKASQNVGTNVVWYQQKPGKAPKLLIYSASYRVSGVPSRFSGSGSGTEFTLTISSLQPEDFATYYCQQKNNYPYTFGQGTKLEIK	9.83e-05

Please turn your attention to the following entry.
Would you mind telling me what koff value was observed for 8G11 humanized VH4 + VL2 (antibody, V domains shown, Humanized IgG expressed in HEK293; also called VH4 + VL2 (8G11)) VH: QVQLVQSGAEVVKPGASVKLSCKGSGFNIKDYYMHWVKQAPGQGLEWIGRIDPEDAETKYAPKFQGRATITADTSTSTAYLELSSLRSEDTAVYYCARGGNFYVMDYWGQGTLVTVSS VL: DIQLTQSPSFLSTSVGDRVTITCKASQNVGTNVVWYQQKPGKSPKVLIYSASYRVSGVPSRFSGSGSGTEFTLIISSLQPEDFATYYCQQKNNYPYTFGQGTKLEIK ? 9.69e-05
